- System: gli-luciferase activity (Hh pathway) in TMHh12 cells
- Experiment notes: "IC50 shift" gli-luciferase reporter assay in TMHh12 cells with a small molecule Smo agonist
- Assay type: cell-based, mouse
- Experimental conditions: Mus musculus, TMHh12, TMHh12 cells, 1 nM small molecule Smo agonist; read-out: Gli_luc (1 nM Smo agonist) IC50
Assign IC50 to each entry below.
Write the value in nM as a bare number.

-- ask For COc1ccc(CN[C@H]2Cc3ccc(NC(=O)c4cccc(C)c4-c4ccc(C(F)(F)F)cc4)cc3C2)cn1 [Example 32] , what is its reported IC50?
-- reply 261

-- ask Returns the measured IC50 for the input compound. Input: O=C(Nc1ccc2c(c1)C[C@H](NS(=O)(=O)c1ccccc1)C2)c1ccccc1-c1ccc(C(F)(F)F)cc1 [Example 89]
-- reply 202

-- ask Could you tell me which IC50 is on file for Cc1cccc(C(=O)Nc2ccc3c(c2)C[C@@H](NCc2nccn2C)C3)c1-c1ccc(C(F)(F)F)cc1 [Example 18] ?
-- reply 39

-- ask // lookup IC50 for Cc1cccc(C(=O)Nc2ccc3c(c2)CC(NCc2cccs2)C3)c1-c1ccc(C(F)(F)F)cc1 (stereo not shown) [Example 52]
-- reply 40

-- ask Which IC50 value belongs to Cc1ccc(C(=O)Nc2ccc3c(c2)C[C@H](NCc2ccccn2)C3)c(-c2ccccc2)c1 [Example 73] ?
-- reply 99

-- ask Can you share its IC50? I mean this compound: Cc1cccc(C(=O)Nc2ccc3c(c2)C[C@@H](NCc2ccc4c(c2)CCO4)C3)c1-c1ccc(C(F)(F)F)cc1 [Example 31]
-- reply 281

-- ask For the compound Cc1cccc(C(=O)Nc2ccc3c(c2)CC(NCC2CCCCC2)C3)c1-c1ccc(C(F)(F)F)cc1 (stereo not shown) [Example 50] , what IC50 is on record?
-- reply 901

-- ask Fill in: IC50 of CCOC(=O)NC1CCc2ccc(NC(=O)c3cccc(C)c3-c3ccc(C(F)(F)F)cc3)cc2CC1 (stereo not shown) [Example 84] is ___
-- reply 700

-- ask Item under review: Cc1cccc(C(=O)Nc2ccc3c(c2)C[C@@H](Nc2ccccc2)C3)c1-c1ccc(C(F)(F)F)cc1 [Example 74] . Reported IC50?
-- reply 19

-- ask Please give the measured IC50 for this compound: Cc1cccc(C(=O)Nc2ccc3c(c2)C[C@@H](NCc2ccc(-n4ccnc4)cc2)C3)c1-c1ccc(C(F)(F)F)cc1 [Example 28]
-- reply 12

-- ask # IC50 lookup, item O=C(Nc1ccc2c(c1)CC(NS(=O)(=O)c1ccccc1)C2)c1ccccc1-c1ccc(Cl)cc1 (stereo not shown) [Example 96]
-- reply 1480

-- ask # input compound: O=C(Nc1ccc2c(c1)CC(NS(=O)(=O)c1cccs1)C2)c1cccc(F)c1-c1ccc(C(F)(F)F)cc1 (stereo not shown) [Example 91] ; wanted: its IC50
-- reply 59

-- ask What does the record list as IC50 for Cc1cccc(C(=O)Nc2ccc3c(c2)C[C@@H](NCc2scnc2C)C3)c1-c1ccc(C(F)(F)F)cc1 [Example 10] ?
-- reply 290

-- ask So what's the measured IC50 for this one? CCOC(=O)NC1Cc2ccc(NC(=O)c3cccc(OC)c3-c3ccc(C(F)(F)F)cc3)cc2C1 (stereo not shown) [Example 83]
-- reply 715

-- ask Query: IC50; subject: COc1ccc(CN[C@H]2Cc3ccc(NC(=O)c4cccc(C)c4-c4ccc(C(F)(F)F)cc4)cc3C2)cc1 [Example 23]
-- reply 349

-- ask Entry under review: Cc1cccc(C(=O)Nc2ccc3c(c2)CC(NCc2c[nH]c4ccccc24)C3)c1-c1ccc(C(F)(F)F)cc1 (stereo not shown) [Example 61] . Reported IC50?
-- reply 2100

-- ask Looking for the measured IC50 of CC(=O)Nc1ccc(CN[C@H]2Cc3ccc(NC(=O)c4cccc(C)c4-c4ccc(C(F)(F)F)cc4)cc3C2)cc1 [Example 22] , can you help?
-- reply 456

---

- Test system: gli-luciferase activity (Hh pathway) in TMHh12 cells
- Experiment notes: "IC50 shift" gli-luciferase reporter assay in TMHh12 cells with a small molecule Smo agonist
- Assay type: cell-based, mouse
- Experimental conditions: Mus musculus, TMHh12, TMHh12 cells, 1 nM small molecule Smo agonist; read-out: Gli_luc (1 nM Smo agonist) IC50
Assay endpoint: IC50 (nM)
All answers are understood in nM, so give the number only.

-- ask Under gli-luciferase activity (Hh pathway) in TMHh12 cells: IC50 value of Cc1cccc(C(=O)Nc2ccc3c(c2)CC(NCc2nccn2C)C3)c1-c1ccc(C(F)(F)F)cc1 (stereo not shown) ?
-- reply 145

-- ask Notebook: pull reported IC50 for gli-luciferase activity (Hh pathway) in TMHh12 cells, entry "COc1ccc(OC)c(CN[C@H]2Cc3ccc(NC(=O)c4cccc(C)c4-c4ccc(C(F)(F)F)cc4)cc3C2)c1"
-- reply 254

-- ask Please tell me: IC50 of Cc1cccc(C(=O)Nc2ccc3c(c2)CC(NCc2ccncc2)C3)c1-c1ccc(C(F)(F)F)cc1 (stereo not shown) , system gli-luciferase activity (Hh pathway) in TMHh12 cells?
-- reply 142

-- ask For the record Cc1cccc(C(=O)Nc2ccc3c(c2)CC(NCc2nc4ccccc4n2C)C3)c1-c1ccc(C(F)(F)F)cc1 (stereo not shown) , what value of IC50 is listed for gli-luciferase activity (Hh pathway) in TMHh12 cells?
-- reply 3060

---

Please respond with reported pIC50 for every item in the list.
- Tested on: gli-luciferase activity (Hh pathway) in TMHh12 cells
- Experiment notes: "IC50 shift" gli-luciferase reporter assay in TMHh12 cells with a small molecule Smo agonist
- Format: cell-based, mouse
- Experimental conditions: Mus musculus, TMHh12, TMHh12 cells, 1 nM small molecule Smo agonist; read-out: Gli_luc (1 nM Smo agonist) IC50
pIC50: −log10 of the molar value.

-- ask Please tell me: pIC50 of "Cc1cccc(C(=O)Nc2ccc3c(c2)C[C@@H](NCc2cccs2)C3)c1-c1ccc(C(F)(F)F)cc1" , system gli-luciferase activity (Hh pathway) in TMHh12 cells?
-- reply > 8.30

-- ask Lab note: need pIC50 with gli-luciferase activity (Hh pathway) in TMHh12 cells for entry "Cc1csc(CN[C@H]2Cc3ccc(NC(=O)c4cccc(C)c4-c4ccc(C(F)(F)F)cc4)cc3C2)n1" , please look it up.
-- reply > 8.30

-- ask Missing value: pIC50, gli-luciferase activity (Hh pathway) in TMHh12 cells, entry "Cc1cccc(C(=O)Nc2ccc3c(c2)C[C@@H](NCc2cccn2C)C3)c1-c1ccc(C(F)(F)F)cc1" . Fill in?
-- reply > 8.30

Measured values drawn from patent US20090306149A1 for this set.
